SYSTEM: E3 ubiquitin-protein ligase Mdm2 (Homo sapiens)
ASSAY_TEXT: 384-well cell-based luminescence, MDM2-luciferase reporter signal enhancement, concentration series, MDM2 ligase inhibitor project (AID 1394)
CONDITION_PARAMETERS: cells, MDM2-luciferase autoubiquitination reporter, 2 h
Calls of active or inactive are those of the source.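 Rule for the calls: active = fitted EC50 above 0 with maximum enhancement above 35%; inactive = the rest.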
MEASURED_ATTRIBUTE: maximum enhancement

> print(dat)
                               smiles.entry   measured.attribute    result
1  Cc1ccc(/C=C2/NC(=O)N(Cc3ccc(Br)cc3)C2=O)o1  maximum enhancement  inactive
2                CCN(CC)Cc1cc(C(=O)O)c(C)o1  maximum enhancement  inactive
3     O=C(O)CCc1ccc(-c2ccc(Br)cc2)n1CC(=O)O  maximum enhancement  inactive
4  Cn1c(=NC(=O)c2ccc3c(c2)OCCO3)sc2cc(S(C)(=O)=O)ccc21  maximum enhancement  inactive
